From: patent US20250248998A1

target under test: LRRK2[G2019S] (Homo sapiens, UniProt Q5S007, G2019S)
Sequence (Q5S007 970-2527 G2019S limits assumed): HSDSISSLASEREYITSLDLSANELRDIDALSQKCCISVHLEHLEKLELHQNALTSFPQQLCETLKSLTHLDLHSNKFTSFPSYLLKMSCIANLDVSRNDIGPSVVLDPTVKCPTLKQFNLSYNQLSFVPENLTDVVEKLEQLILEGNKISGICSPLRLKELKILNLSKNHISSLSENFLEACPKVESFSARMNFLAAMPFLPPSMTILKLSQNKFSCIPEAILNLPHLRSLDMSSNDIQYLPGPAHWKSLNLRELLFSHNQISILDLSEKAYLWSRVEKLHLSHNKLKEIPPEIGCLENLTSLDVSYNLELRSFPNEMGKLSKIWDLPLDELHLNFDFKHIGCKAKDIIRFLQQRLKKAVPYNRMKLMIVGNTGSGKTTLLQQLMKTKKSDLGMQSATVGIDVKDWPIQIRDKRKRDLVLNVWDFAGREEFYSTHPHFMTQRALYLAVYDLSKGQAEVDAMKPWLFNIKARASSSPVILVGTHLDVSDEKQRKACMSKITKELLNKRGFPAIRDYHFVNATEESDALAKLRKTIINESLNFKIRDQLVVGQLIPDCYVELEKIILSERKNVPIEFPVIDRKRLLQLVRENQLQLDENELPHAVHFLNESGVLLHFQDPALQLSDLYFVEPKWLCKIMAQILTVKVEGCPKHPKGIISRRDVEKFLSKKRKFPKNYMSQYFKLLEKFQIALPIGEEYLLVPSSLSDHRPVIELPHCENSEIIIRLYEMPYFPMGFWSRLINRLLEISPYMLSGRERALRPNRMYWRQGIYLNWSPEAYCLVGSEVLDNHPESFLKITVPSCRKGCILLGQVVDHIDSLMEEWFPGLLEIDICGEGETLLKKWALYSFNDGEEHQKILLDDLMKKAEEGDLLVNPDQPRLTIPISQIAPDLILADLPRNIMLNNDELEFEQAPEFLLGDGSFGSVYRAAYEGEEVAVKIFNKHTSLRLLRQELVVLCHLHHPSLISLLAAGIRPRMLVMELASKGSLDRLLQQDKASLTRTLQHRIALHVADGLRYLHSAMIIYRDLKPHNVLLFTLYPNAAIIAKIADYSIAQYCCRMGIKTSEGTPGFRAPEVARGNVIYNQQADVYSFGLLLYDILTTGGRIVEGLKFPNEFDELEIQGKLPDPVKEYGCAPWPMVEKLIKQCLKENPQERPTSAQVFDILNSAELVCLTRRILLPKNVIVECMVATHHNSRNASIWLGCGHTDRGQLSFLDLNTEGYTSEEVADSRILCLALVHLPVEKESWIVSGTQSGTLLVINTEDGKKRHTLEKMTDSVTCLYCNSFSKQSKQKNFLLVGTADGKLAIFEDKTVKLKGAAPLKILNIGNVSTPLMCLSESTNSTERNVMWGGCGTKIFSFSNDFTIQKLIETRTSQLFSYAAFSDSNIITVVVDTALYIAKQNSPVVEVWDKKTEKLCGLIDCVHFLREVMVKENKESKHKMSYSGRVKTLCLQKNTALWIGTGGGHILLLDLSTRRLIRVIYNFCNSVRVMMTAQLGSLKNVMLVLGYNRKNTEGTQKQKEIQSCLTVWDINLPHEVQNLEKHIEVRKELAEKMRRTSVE
method summary: Enzymatic activity inhibition against LRRK2[G2019S] (ADP-Glo kinase assay, LRRKtide substrate)
measurement parameters: recombinant LRRK2[G2019S] 36 nM, ATP, 1 h at rt, average Ki
pKi: −log10 of the molar value.
readout name: pKi

| compound | reported result |
| --- | --- |
| Cn1nc(-c2n[nH]c3ccc(OC4(C)CC4)cc23)cc(N2CCCC(F)(F)C2)c1=O [Compound 54] | ≥ 8.30 |
| Cn1nc(-n2ncc3ccc(C(C)(C)C#N)cc32)cc(N2CCOCC2)c1=O [Compound 43] | < 7.00 |
| Cc1nnc(-c2n[nH]c3ccc(OC(C)C)cc23)cc1N1CCOCC1 [Compound 10] | 7.30 to 8.00 |
| CC1CCN(c2cc(-c3n[nH]c4ccc(OC(C)C)cc34)cnn2)C1 (centres unmarked) [Compound 3] | ≥ 8.30 |
| N#CC1(c2ccc3cnn(-c4cnnc(N5CCCC5)c4)c3c2)CCCC1 [Compound 39] | 7.00 to 7.30 |
| Cn1nc(-c2n[nH]c3ccc(OC(F)F)cc23)cc(N2CCOCC2)c1=O [Compound 32] | 7.00 to 7.30 |
| CC(C)Oc1ccc2[nH]nc(-c3cc(N4CCOCC4)c(=O)n(C(C)C)n3)c2c1 [Compound 21] | 8.00 to 8.30 |

Shifting focus to the compound that follows.
Given the compound CCn1nc(-c2n[nH]c3ccc(OC(C)C)cc23)cc(N2CCOCC2)c1=O [Compound 23] , write its reported pKi.
≥ 8.30

---

Reported Ki values for the following compounds.
target under test: LRRK2 WT (Homo sapiens, UniProt Q5S007)
Sequence (Q5S007 970-2527 limits assumed): as the sequence (Q5S007 970-2527 G2019S limits assumed) above, with S1050G counted along it
method summary: Enzymatic activity inhibition against LRRK2 WT (ADP-Glo kinase assay, LRRKtide substrate)
measurement parameters: recombinant LRRK2 WT 36 nM, ATP, 1 h at rt, average Ki

Examples with their reported Ki follow.
| compound | Ki |
| --- | --- |
| CC(C)Cn1nc(-c2n[nH]c3ccc(OC(C)C)cc23)cc(N2CCOCC2)c1=O | ≤ 10 nM |
| CC(C)(C#N)c1ccc2cnn(-c3cnnc(N4CCCC4)c3)c2c1 | 20 to 50 nM |

For LRRK2 WT (Homo sapiens, UniProt Q5S007), give the measured Ki of the entry CC(C)Oc1ccc2[nH]nc(-c3cnnc(N4CCCC4)c3)c2c1
10 to 20 nM

For LRRK2 WT (Homo sapiens, UniProt Q5S007), give the measured Ki of the entry CC(C)Oc1ccc2[nH]nc(-c3cc(N4CCOCC4)c(=O)n(C4CC4)n3)c2c1
≤ 10 nM

For LRRK2 WT (Homo sapiens, UniProt Q5S007), give the measured Ki of the entry Cc1cc2[nH]nc(-c3cc(N4CCOCC4)c(=O)n(C)n3)c2cc1OC(C)C
≤ 10 nM

For LRRK2 WT (Homo sapiens, UniProt Q5S007), give the measured Ki of the entry Cn1nc(-c2n[nH]c3ccc4c(c23)CCCO4)cc(N2CCOCC2)c1=O
50 to 100 nM

For LRRK2 WT (Homo sapiens, UniProt Q5S007), give the measured Ki of the entry Cn1nc(-c2n[nH]c3ccc(OC4CCC4)cc23)cc(N2CCOCC2)c1=O
≤ 10 nM

For LRRK2 WT (Homo sapiens, UniProt Q5S007), give the measured Ki of the entry Cn1nc(-n2ncc3ccc(C(C)(C)C#N)cc32)cc(N2CCOCC2)c1=O
50 to 100 nM

For LRRK2 WT (Homo sapiens, UniProt Q5S007), give the measured Ki of the entry O=S1(=O)CCCC1c1ccc2cnn(-c3cnnc(N4CCCC4)c3)c2c1 (stereo not shown)
> 100 nM

For LRRK2 WT (Homo sapiens, UniProt Q5S007), give the measured Ki of the entry Cn1nc(-c2n[nH]c3ccc(OC4(C)CC4)cc23)cc(N2CCCC(F)(F)C2)c1=O
≤ 10 nM

For LRRK2 WT (Homo sapiens, UniProt Q5S007), give the measured Ki of the entry Cn1nc(-c2n[nH]c3ccc(-n4cccc4C#N)cc23)cc(N2CCOCC2)c1=O
≤ 10 nM

For LRRK2 WT (Homo sapiens, UniProt Q5S007), give the measured Ki of the entry CC(C)Oc1ccc2[nH]nc(-c3cc(N4CCCC4)c(=O)n(C)n3)c2c1
≤ 10 nM

For LRRK2 WT (Homo sapiens, UniProt Q5S007), give the measured Ki of the entry Cn1nc(-c2n[nH]c3ccc(OC4(C)CC4)cc23)cc(N2CCOCC2)c1=O
≤ 10 nM

For LRRK2 WT (Homo sapiens, UniProt Q5S007), give the measured Ki of the entry Cn1nc(-n2ncc3ccc(C4(C#N)CC4)cc32)cc(N2CCOCC2)c1=O
≤ 10 nM

For LRRK2 WT (Homo sapiens, UniProt Q5S007), give the measured Ki of the entry Cn1nc(-c2n[nH]c3ccc(OC4(C)CC4)cc23)cc(N2CCC3(CCC3)C2)c1=O
≤ 10 nM
